target: T1, human insulin-like growth factor-I (IGF-I) (human, UniProt P05019 49-118); test: Biacore low-resolution screen, mAb captured, IGF-I injected
T1 construct: also called IGF1; IGF-1
metricName: kon (M⁻¹ s⁻¹)
One number for each entry, in M⁻¹ s⁻¹.

Sample records with kon:
• mAb 7.251.3 (antibody, V domains shown, Fully human XenoMouse hybridoma mAb, lambda light chain (V1-13/JL2); also called ATCC PTA-7422) VH: QVQLQESGPGLVKPSETLSLTCTVSGGSISSYYWSWIRQPPGKGLEWIGYFFYSGYTNYNPSLKSRVTISVDTSKNQFSLKLSSVTAADTAVYYCACITGTTKGGMDVWGQGTTVTVSS VL: QSVLTQPPSVSGAPGQRVTISCTGSSSNIGAGYDVHWYQQLPGTAPKLLIYGNNNRPSGVPDRFSGSKSGTSASLAITGLQADDEADYYCQSFDSSLSGSVFGGGTKLTVLG = 4.6e+06
• mAb 7.234.2 (antibody, V domains shown, Kappa light chain (L5/JK3); also called 7.234.1; 7_234_1) VH: QLQLQESGPGLVKPSETLSLTCTVSGGSINSSSNYWGWIRQPPGKGLAWIGGIYYSGSTYYNPSLRSRVTMSVDTSKNQFSLKLSSVTAADTAVYYCARQRGHSSGWWYFDLWGRGTLVTVSS VL: DIQMTQSPSSVSASVGDRVTITCRASRGISSWLAWYQQRPGKAPKLLIYTASSLQSGVPSRFSGSGSGTDFTLTISSLQPEDFATYYCQQANSFPFTFGPGTKVDIKR = 6.7e+06
• mAb 7.34.1 (antibody, V domains shown, Fully human XenoMouse hybridoma mAb, lambda light chain (V1-13/JL2); also called ATCC PTA-7423) VH: QVQLQESGPGLVKPSETLSLTCTVSGGSISSYYWSWIRQPPGRGLEWIGYFFYSGYTNYNPSLKSRVTMSVDTSKNQFSLKLSSVTAADTAVYYCACITGTTKGGMDVWGQGATVTVSS VL: QSVLTQAPSVSGAPGQRVTISCTGRSSNIGAGYDVHWYQQFPGTAPKLLIYGNSNRPSGVPDRFSGSKSGTSASLAITGLQAEDEADYYCQSYDSSLSGSVFGGGTKLTVLG = 5.2e+06
• mAb 7.158.2 (antibody, V domains shown, Kappa light chain (L5/JK3); also called 7.158.1; 7_158_1) VH: QLQLQESGPGLVKPSETLSLTCTVSGGSIRSSSYYWGWIRQPPGKGLEWIGGIYYSGSTYYNPSLKSRVTMSVDTSKNQFSLKLSSVTAADTAVYYCARQRGHSSGWWYFDLWGRGTLVTVSS VL: DIQMTQSPSSVSASVGDSVTITCRASQGISSYLAWYQQKPGKAPKLLIYAASSLQSGVPSRFSGNGSGTDFTLTISSLQPEDFATYYCQQANNFPFTFGPGTKVDIKR = 4.4e+06

Query (binder): mAb 7.159.2 (antibody, V domains shown, Fully human XenoMouse hybridoma mAb, lambda light chain (V1-19/JL2); Sister clones 7.159.1 and 7.159.2 are said to be identical; also called 7.159.1; 7_159_1) VH: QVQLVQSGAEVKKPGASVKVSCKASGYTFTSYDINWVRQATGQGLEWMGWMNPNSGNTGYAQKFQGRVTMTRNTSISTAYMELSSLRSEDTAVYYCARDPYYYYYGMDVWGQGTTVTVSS VL: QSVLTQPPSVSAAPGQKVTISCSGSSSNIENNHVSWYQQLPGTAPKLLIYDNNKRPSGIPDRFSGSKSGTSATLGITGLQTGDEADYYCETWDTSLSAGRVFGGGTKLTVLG ; field requested: kon
4.3e+06
